# SUBJECT_OF_TEST: T1, human MSLN-His-Avi (human, UniProt Q13421 296-598, single biotin (BirA) in the biotinylated form)
# T1 construct: Monomeric, made in HEK293-6E; Used both immobilised and in solution; also called hMSLN-His-Avi; biotinylated hMSLN-His-Avi
# PROCEDURE_SUMMARY: SPR as Example 4.1 (about 40 RU instead of 100), MSLN in solution
Reported Kd values follow for various binders

BINDER | Kd
FS28-256-274 (in CD137 mAb^2 format) (bispecific antibody, V domains shown) VH: EVQLLESGGGLVQPGGSLRLSCAASGFTFTHTYMSWVRQAPGKGLEWVSTISPTYSTTNYADSVKGRFTISRDNNKNTLYLQMNSLRAEDTAVYYCARYNAYHAALDYWGQGTLVTVSS VL: EIVLTQSPGTLSLSPGERATLSCRASQSVSSSYLAWYQQKPGQAPRLLIYGASSRATGIPDRFSGSGSGTDFTLTISRLEPEDFAVYYCQQTVPYPYTFGQGTKVEIK | 55.9 nM
FS28-256-272 (in CD137 mAb^2 format) (bispecific antibody, V domains shown, Position 55 is IMGT numbering, not the count on the entry) VH: EVQLLESGGGLVQPGGSLRLSCAASGFTFTHTYMSWVRQAPGKGLEWVSHISPTYSTTNYADSVKGRFTISRDNNKNTLYLQMNSLRAEDTAVYYCARYNAYHAALDYWGQGTLVTVSS VL: EIVLTQSPGTLSLSPGERATLSCRASQSVSSSYLAWYQQKPGQAPRLLIYGASSRATGIPDRFSGSGSGTDFTLTISRLEPEDFAVYYCQQTVPYPYTFGQGTKVEIK | 7.6 nM
